protocolText: Binding affinity to HLA-DQ2 expressed in EBV-transformed B cells
Type: cell-based
Square brackets hold non-standard residues; d marks the D form. Peptide text beside a SMILES is read from it. Pro(cis-4-N3) = [N-]=[N+]=N[C@@H]1CN[C@H](C(=O)O)C1
Listing: IC50 of selected molecules
# value in µM; strip the unit string

Sample answers from the record:
molecule: CC(C)C[C@H](NC(=O)[C@@H](N)CCC(N)=O)C(=O)N[C@@H](CCC(N)=O)C(=O)N1CCC[C@H]1C(=O)N[C@@H](Cc1ccccc1)C(=O)N1CCC[C@H]1C(=O)N[C@@H](CCC(N)=O)C(=O)N1CCC[C@H]1C(=O)N[C@@H](CCC(=O)O)C(=O)N[C@@H](CC(C)C)C(=O)N1CCC[C@H]1C(=O)N[C@@H](Cc1ccc(O)cc1)C(=O)O (H-QLQPFPQPELPY-OH)
measurementName: IC50
numericReadout: 17.2

molecule: CC(C)C[C@H](NC(=O)[C@@H](N)CCC(N)=O)C(=O)N[C@@H](CCC(N)=O)C(=O)N1CCC[C@H]1C(=O)N[C@@H](Cc1ccccc1)C(=O)N1C[C@@H](N=[N+]=[N-])C[C@H]1C(=O)N[C@@H](CCC(N)=O)C(=O)N1CCC[C@H]1C(=O)N[C@@H](CCC(=O)O)C(=O)N[C@@H](CC(C)C)C(=O)N1CCC[C@H]1C(=O)N[C@@H](Cc1ccc(O)cc1)C(=O)N1CCC[C@H]1C(=O)N[C@@H](CCC(N)=O)C(=O)O (H-QLQPF[Pro(cis-4-N3)]QPELPYPQ-OH)
measurementName: IC50
numericReadout: 10.7

molecule: CC(C)C[C@H](NC(=O)[C@H](CCC(N)=O)NC(=O)[C@@H](N)CC(C)C)C(=O)N[C@@H](CCC(N)=O)C(=O)N1CCC[C@H]1C(=O)N[C@@H](Cc1ccccc1)C(=O)N1C[C@@H](N=[N+]=[N-])C[C@H]1C(=O)N[C@@H](CCC(N)=O)C(=O)N1CCC[C@H]1C(=O)N[C@@H](CCC(=O)O)C(=O)N[C@@H](CC(C)C)C(=O)N1CCC[C@H]1C(=O)N[C@@H](Cc1ccc(O)cc1)C(=O)N1CCC[C@H]1C(=O)N[C@@H](CCC(N)=O)C(=O)O
measurementName: IC50
numericReadout: 8.6

Turning to the following molecule.
Please list IC50 recorded for the molecule CC(C)C[C@H](NC(=O)CN)C(=O)N[C@@H](CCC(N)=O)C(=O)N1CCC[C@H]1C(=O)N[C@@H](Cc1ccccc1)C(=O)N1C[C@@H](N=[N+]=[N-])C[C@H]1C(=O)N[C@@H](CCC(N)=O)C(=O)N1CCC[C@H]1C(=O)N[C@@H](CCC(=O)O)C(=O)N[C@@H](CC(C)C)C(=O)N1CCC[C@H]1C(=O)N[C@@H](Cc1ccc(O)cc1)C(=O)N1CCC[C@H]1C(=O)N[C@@H](CCC(N)=O)C(=O)O (H-GLQPF[Pro(cis-4-N3)]QPELPYPQ-OH)
9.4
